System: XF498
experiment-notes: NCI tumour cell line growth inhibition, 48 h
Calls of active or inactive are those of the source. Cut-off read from the data, not from the text of the source: active = GI50 up to about 1.1 µM and inactive = higher.
What GI50 was measured for each of the following?

Lookup: Give recorded GI50 with XF498 for the following compound: CN(CN1C(=O)C2Cc3ccccc3CN2C1=O)c1ccccn1 (centres undefined)
Found: > 100 µM (inactive)

Lookup: Item `CCOC(=O)/C(C(C)=O)=C1/N[C@H](C(=O)OCC)CS1` with XF498 - GI50?
Found: > 100 µM (inactive)

Lookup: What value of GI50 on XF498 does `O=CC1=CCCC2(C1)OCCO2` have?
Found: > 100 µM (inactive)

Lookup: Notebook entry, XF498 assay: GI50 of [N-]=[N+]=NC1(Cc2ccccc2)C(=O)Nc2ccccc2C1=O (centres undefined) = ?
Found: > 100 µM (inactive)

Lookup: Item: c1cncc(C2c3[nH]c4ccccc4c3CCN2CCCN2CCCCC2)c1 (centres undefined) Test system: XF498 Read-out: GI50 Value: ?
Found: 57.4 µM (inactive)

Lookup: Provide value of GI50 for this record tested with XF498: `Cc1ccccc1NC(=O)c1ccc([N+](=O)[O-])cc1`
Found: > 100 µM (inactive)

Lookup: API: value(readout= GI50, system= XF498, query= CC[C@@]1(O)C(=O)OCc2c1cc1n(c2=O)Cc2cc3cc(O)ccc3nc2-1 [HYDROXYCAMPTOTHECIN] )
Found: 0.0262 µM (active)

Lookup: Given the entry `O=[N+]([O-])c1ccc(CNC2=NNS(=O)(=O)c3ccccc32)cc1` , what GI50 was observed with XF498?
Found: > 100 µM (inactive)

Lookup: Query GI50 on XF498 for `N#CCCN(CCC#N)c1ccc(/C=C2\N=C(c3cc([N+](=O)[O-])ccc3Cl)N(NC(=O)CC(=O)Nc3ccccc3Cl)C2=O)cc1`
Found: > 100 µM (inactive)

====

Please go through the items and note down their GI50.
Tested on: DU-145
experiment-notes: NCI tumour cell line growth inhibition, 48 h
Active and inactive are the calls of the source. Cut-off read from the data, not from the text of the source: active = GI50 up to about 1.1 µM and inactive = higher.

Lookup: Please look up its GI50: `Cc1ccc(S(=O)(=O)CNC(=O)C(O)(O)C(F)(F)F)cc1`
Found: > 100 µM (inactive)

Lookup: Entry NC(CSC(=O)c1ccccc1)C(=O)O (configuration not stated) : reported GI50 = ?
Found: > 100 µM (inactive)

Lookup: Given O=[N+]([O-])c1ccc(O)c(/C=N/CC2CCCN3CCCCC23)c1 (configuration not stated) , state its recorded GI50.
Found: 42.2 µM (inactive)

Lookup: Can you look up the measured GI50 of CCCC/C=C1/CCC(CN(C)C)C1=O (configuration not stated) for me?
Found: 15.6 µM (inactive)

Lookup: Bench note: what GI50 did `Cn1cnc([N+](=O)[O-])c1Sc1nc(N)nc2c1ncn2Cc1ccccc1` show?
Found: 20.8 µM (inactive)

Lookup: Fill blank: measured GI50 of the compound CC1(C)CC2C(C1=O)C1(C)CCCC2(C)C1=O (configuration not stated) is ____.
Found: > 100 µM (inactive)

Lookup: Item under review: `CCOC(=O)C1(C(=O)OCC)Nc2cccnc2N(C)N1` . Reported GI50?
Found: 18.7 µM (inactive)

====

Test system: MDA-MB-231
experiment-notes: NCI tumour cell line growth inhibition, 48 h
The source made the active and inactive calls. No stated cut-off is given here; in the data, active = GI50 up to about 1.1 µM and inactive = higher.
Give one outcome, nothing more. List: Yes (active), No (inactive)

Lookup: Hi, sorry to bother you, what did the test record for `CCOC(=O)N/N=C(/N)c1cccc([N+](=O)[O-])c1` ?
Found: No

Lookup: Please share the test call associated with `CC(=O)Oc1ccc2c(c1)c1c(OC(C)=O)c3ccccc3c(OC(C)=O)c1n2Cc1cccc(C)c1` .
Found: No

Lookup: Test call for this compound, please: `CCOC(=O)C1(C(=O)OCC)Nc2cccnc2N(C)N1`
Found: No

Lookup: Hi team, can someone confirm the assay call for `O=C1Sc2cc3ccccc3cc2C(=O)Sc2cc3ccccc3cc21` ?
Found: No

Lookup: Recorded test call requested for `C[C@]1(O)CC(=O)c2c(c(-c3ccc4cc5c(c(O)c4c3O)C(=O)C[C@@](C)(O)C5)c3cccc(O)c3c2O)C1`
Found: No

Lookup: Tell me the recorded outcome of this test for `CCOP(=O)(CN1CCNCCN(CP(=O)(OCC)OCC)CC1)OCC` .
Found: No

Lookup: Name the outcome recorded for `Cc1nc(C(N)=S)sc1C(=O)CC(=O)C(=O)Nc1nc2ccccc2[nH]1` in the assay.
Found: No

Lookup: Fill in: this test's call for `CCOC(=O)c1nnsc1NC(=O)Nc1ccc(Cc2ccc(NC(=O)Nc3snnc3C(=O)OCC)cc2)cc1` is ___
Found: No

Lookup: Look up the recorded call for `CCN(CC)c1ccc2cc(-c3csc(-c4ccc(N(C)C)cc4)n3)c(=O)oc2c1` in this test.
Found: No

Lookup: Hello, I am checking results. What call was entered for COc1ccc(C(O)c2ccccn2)cc1 (configuration not stated) ?
Found: No

Lookup: Please indicate how the test categorized `CCC1([N+](=O)[O-])CN(N=O)C1` .
Found: No

Lookup: Hi, sorry to bother you, what did the test record for `CN(C)CCNc1ccc2c(=O)n(CCN(C)C)c(=O)n3c4ccc([N+](=O)[O-])cc4c(=O)c1c23` ?
Found: Yes

Lookup: GET /call?item= `CN(C)CCNC1=CC(=O)c2nc3ccccc3c3ccnc1c23` returns the recorded outcome of this test.
Found: No

Lookup: Check the results log: what was the call for `O=Nc1c(-c2cccc([N+](=O)[O-])c2)nc2cnccn12` ?
Found: No

Lookup: Which outcome was assigned to `Cc1nc2nn[nH]n2c(=O)c1CCO` in this test?
Found: No

Lookup: Per the assay record, what outcome was assigned to `COc1ccc(/C=C2/C(=O)N(/C=C3\C(=O)Oc4ccccc4C3=O)/C(=N/C(C)=O)N2C)cc1OC` ?
Found: No

Lookup: Recorded test call requested for `NCCCCCCn1c(-c2ccc(Br)cc2)cs/c1=N\c1ccccc1`
Found: No
